Here, each record is paired with measured combination Emax data.
System: LB831-BLC (Bladder Carcinoma)
Test: combination Emax (second highest fraction inhibited in the dose matrix, 72 h); higher = more inhibition; extreme values may be limits of the assay
Keep it simple and answer with nothing but the number.

CN(CCO)CC[C@H](CSc1ccccc1)Nc1ccc(S(=O)(=O)NC(=O)c2ccc(N3CCC([C@@H](O)c4ccccc4-c4ccc(Cl)cc4)CC3)cc2)cc1S(=O)(=O)C(F)(F)F [AZD4320] + CC(=O)O[C@H]1C(=O)[C@@]2(C)[C@H]([C@H](OC(=O)c3ccccc3)[C@]3(O)C[C@H](OC(=O)[C@H](O)[C@@H](NC(=O)c4ccccc4)c4ccccc4)C(C)=C1C3(C)C)[C@]1(OC(C)=O)CO[C@@H]1C[C@@H]2O [Paclitaxel] (first compound max 1 µM, 7x7, partner max 3 µM) : 0.965

The compound identified as N#Cc1cnc(Nc2cc(NC[C@H]3CNCCO3)c(C(F)(F)F)cn2)cn1 [SRA737] + C=CCn1c(=O)c2cnc(Nc3ccc(N4CCN(C)CC4)cc3)nc2n1-c1cccc(C(C)(C)O)n1 [AZD1775] (first compound max 10 µM, partner max 1 µM) registered its combination Emax at 0.721

###

Tested on: LU-135 (Small Cell Lung Carcinoma);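 further: after 72 h of two-drug dosing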
Assay: Bliss excess, mean over the matrix (fraction); higher = more synergy
Here, each record is paired with measured Bliss excess data.

The examples below pair each entry with its known result.
CC1(C)CCC(CN2CCN(c3ccc(C(=O)NS(=O)(=O)c4ccc(NCC5CCOCC5)c([N+](=O)[O-])c4)c(Oc4cnc5[nH]ccc5c4)c3)CC2)=C(c2ccc(Cl)cc2)C1 [Venetoclax] + C1CN(CCC1(C(=O)N[C@@H](CCO)C2=CC=C(C=C2)Cl)N)C3=NC=NC4=C3C=CN4 [Capivasertib] (first compound max 1 µM, 7x7, partner max 3 µM) : -0.0429
Cc1cc2ncnn2cc1Nc1ncc2c(n1)n(C1CCOCC1)c(=O)n2C [AZD7648] + CN(C)CCCOc1ccc(-c2ccc3ncc4c(c3c2)n(C2CCOCC2)c(=O)n4C)cn1 [AZD0156] (first compound max 10 µM, 7x7, partner max 1 µM) : -0.0088

--- query ---
The compound identified as CN(CCO)CC[C@H](CSc1ccccc1)Nc1ccc(S(=O)(=O)NC(=O)c2ccc(N3CCC([C@@H](O)c4ccccc4-c4ccc(Cl)cc4)CC3)cc2)cc1S(=O)(=O)C(F)(F)F [AZD4320] + C[C@@H]1COCCN1C2=NC(=NC(=C2)C3(CC3)[S@](=N)(=O)C)C4=C5C=CNC5=NC=C4 [AZD6738] (first compound max 1 µM, 7x7, partner max 10 µM) registered its Bliss excess at 0.0417

###

Here, each record is paired with measured combination Emax data.
Test system: TE-9 (Esophageal Squamous Cell Carcinoma)
Experiment: combination Emax (second highest fraction inhibited in the dose matrix, 72 h); higher = more inhibition; extreme values may be limits of the assay
Keep it simple and answer with nothing but the number.

The examples below pair each entry with its known result.
Cc1c2c(nn1C)CSCc1cc(n(C)n1)CSc1cc(c3ccccc3c1)OCCCc1c(C(=O)O)n(C)c3c-2c(Cl)ccc13 [AZD5991] + CN(C)CCCOc1ccc(-c2ccc3ncc4c(c3c2)n(C2CCOCC2)c(=O)n4C)cn1 [AZD0156] (first compound max 1 µM, 7x7, partner max 1 µM) : 0.188
CN(CCO)CC[C@H](CSc1ccccc1)Nc1ccc(S(=O)(=O)NC(=O)c2ccc(N3CCC([C@@H](O)c4ccccc4-c4ccc(Cl)cc4)CC3)cc2)cc1S(=O)(=O)C(F)(F)F [AZD4320] + Nc1ccn([C@@H]2O[C@H](CO)[C@@H](O)C2(F)F)c(=O)n1 [Gemcitabine] (first compound max 1 µM, 7x7, partner max 0.3 µM) : 0.518
Cc1cc2ncnn2cc1Nc1ncc2c(n1)n(C1CCOCC1)c(=O)n2C [AZD7648] + CN(C)CCCOc1ccc(-c2ccc3ncc4c(c3c2)n(C2CCOCC2)c(=O)n4C)cn1 [AZD0156] (first compound max 10 µM, 7x7, partner max 1 µM) : 0.183
NC1(C(=O)N[C@@H](CCO)c2ccc(Cl)cc2)CCN(c2ncnc3[nH]ccc23)CC1 [Capivasertib] + CC(C)n1c(=O)n(C)c2cnc3cc(F)c(-c4ccc(OCCCN5CCCCC5)nc4)cc3c21 [AZD1390] (first compound max 10 µM, 7x7, partner max 0.3 µM) : 0.17
Cc1nc(-c2cn3c(n2)-c2ccc(-c4cnn(C(C)(C)C(N)=O)c4)cc2OCC3)n(C(C)C)n1 [Taselisib] + O=C(Nc1ccc2[nH]nc(-c3ccncc3)c2c1)[C@@H]1CCN(CC(=O)N2CCN(c3ccc(-c4ncccn4)cc3)CC2)C1 [SCH772984] (first compound max 10 µM, 7x7, partner max 5 µM) : 0.691
Cc1c2c(nn1C)CSCc1cc(n(C)n1)CSc1cc(c3ccccc3c1)OCCCc1c(C(=O)O)n(C)c3c-2c(Cl)ccc13 [AZD5991] + C[C@@H]1COCCN1C2=NC(=NC(=C2)C3(CC3)[S@](=N)(=O)C)C4=C5C=CNC5=NC=C4 [AZD6738] (first compound max 1 µM, 7x7, partner max 10 µM) : 0.366

Param item: CC1(C)CCC(CN2CCN(c3ccc(C(=O)NS(=O)(=O)c4ccc(NCC5CCOCC5)c([N+](=O)[O-])c4)c(Oc4cnc5[nH]ccc5c4)c3)CC2)=C(c2ccc(Cl)cc2)C1 [Venetoclax] + C=CCn1c(=O)c2cnc(Nc3ccc(N4CCN(C)CC4)cc3)nc2n1-c1cccc(C(C)(C)O)n1 [AZD1775] (first compound max 1 µM, partner max 1 µM) ; param system: TE-9 (Esophageal Squamous Cell Carcinoma); output combination Emax: 0.691
